- Test system: Staphylococcus aureus
- protocol-summary: Antibacterial activity against Staphylococcus aureus ATCC 29213 assessed as inhibition of bacterial growth incubated for 16 hrs by microdilution method
- Format: functional
Record form. Attribute: MIC. Fill in for each entry.
One number for each entry, in µg/mL.

Consider the worked cases shown below.
[
  {
    "smiles-structure": "CC[C@@](C)(NC(=O)CNC(=O)[C@@](C)(CC)NC(=O)[C@H](CCC(N)=O)NC(=O)C(C)(C)NC(=O)[C@H](Cc1c[nH]c2ccccc12)NC(C)=O)C(=O)N[C@@H](C)C(=O)NC(C)(C)C(=O)NC(C)(C)C(=O)NCC(=O)N[C@@H](CCC(N)=O)C(=O)N[C@](C)(CC)C(=O)N1C[C@H](O)C[C@H]1C(=O)NC(C)(C)C(=O)N1CCC[C@H]1C(=O)N[C@H](CO)Cc1ccccc1",
    "system-name": "Staphylococcus aureus",
    "uom": "µg/mL",
    "MIC": 32
  },
  {
    "smiles-structure": "CC[C@@](C)(NC(=O)[C@H](CCC(N)=O)NC(=O)CNC(=O)C(C)(C)NC(=O)C(C)(C)NC(=O)[C@H](C)NC(=O)C(C)(C)NC(=O)CNC(=O)C(C)(C)NC(=O)[C@H](CCC(N)=O)NC(=O)C(C)(C)NC(=O)[C@H](Cc1c[nH]c2ccccc12)NC(C)=O)C(=O)N1C[C@H](O)C[C@H]1C(=O)NC(C)(C)C(=O)N1CCC[C@H]1C(=O)N[C@H](CO)Cc1ccccc1",
    "system-name": "Staphylococcus aureus",
    "uom": "µg/mL",
    "MIC": 128
  }
]

Field: next compound
## Task Name the recorded MIC of the item CC(/C=C/[C@@]1(C)[C@H](C)CCC(=O)[C@@H]1C)=C\Cc1c(O)c(Cl)c(C)c(C=O)c1O in your answer.
## Result 16
